Assay: Antioxidant activity assessed as DPPH radical scavenging activity incubated for 20 mins
Assay type: physicochemical
pIC50: −log10 of the molar value.
Value kind: pIC50

> print(dat)
                                   compound  recorded.value
1  COc1cc(/C=C/C(=O)O)cc(OC)c1O [SINAPINATE]            4.45
2  Cc1c(C)c2c(c(C)c1O)CC[C@@](C)(CCC[C@H](C)CCC[C@H](C)CCCC(C)C)O2            4.96
3  O=c1c(O)c(-c2ccc(O)c(O)c2)oc2cc(O)cc(O)c12            4.50
4       COc1cc(/C=C/C(=O)O)ccc1O [FERULATE]            4.32
